These measurements were taken from patent US11999727B2.

Entries and their pIC50
# TESTED TARGET: PRMT5 (Homo sapiens)
# Construct: purchased Viva (custom protein)
# Sequence (O14744 whole entry): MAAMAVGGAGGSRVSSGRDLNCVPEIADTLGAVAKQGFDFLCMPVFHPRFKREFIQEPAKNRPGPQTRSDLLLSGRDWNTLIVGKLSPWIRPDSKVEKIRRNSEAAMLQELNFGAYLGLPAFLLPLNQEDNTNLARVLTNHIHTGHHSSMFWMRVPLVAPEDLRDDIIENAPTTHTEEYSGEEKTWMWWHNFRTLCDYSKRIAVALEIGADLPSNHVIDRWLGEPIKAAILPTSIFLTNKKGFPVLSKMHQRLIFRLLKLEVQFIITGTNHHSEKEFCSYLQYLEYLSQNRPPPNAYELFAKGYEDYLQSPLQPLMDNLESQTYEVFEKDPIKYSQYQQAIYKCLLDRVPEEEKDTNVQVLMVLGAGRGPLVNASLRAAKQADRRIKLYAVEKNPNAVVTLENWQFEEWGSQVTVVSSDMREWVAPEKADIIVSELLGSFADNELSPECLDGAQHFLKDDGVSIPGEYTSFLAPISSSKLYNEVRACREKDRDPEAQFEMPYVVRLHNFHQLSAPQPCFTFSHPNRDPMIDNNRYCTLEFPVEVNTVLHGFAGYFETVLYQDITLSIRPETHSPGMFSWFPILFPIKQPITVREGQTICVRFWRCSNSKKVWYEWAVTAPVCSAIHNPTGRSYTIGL
# Sequence (Q9BQA1 whole entry partner): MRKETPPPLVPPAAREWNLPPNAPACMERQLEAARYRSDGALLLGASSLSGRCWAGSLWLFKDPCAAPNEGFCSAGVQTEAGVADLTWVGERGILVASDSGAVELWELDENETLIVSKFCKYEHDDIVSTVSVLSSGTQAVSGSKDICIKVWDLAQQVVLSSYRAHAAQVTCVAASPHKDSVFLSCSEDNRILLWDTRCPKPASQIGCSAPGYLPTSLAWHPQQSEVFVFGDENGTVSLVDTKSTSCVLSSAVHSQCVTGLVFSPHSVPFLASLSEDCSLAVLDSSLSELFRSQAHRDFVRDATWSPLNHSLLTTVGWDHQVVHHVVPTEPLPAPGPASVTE
# EXPERIMENT DESCRIPTION: PRMT5 biochemical IC50 assay with MTA as cofactor
# MEASUREMENT CONTEXT: PRMT5, MTA as cofactor; read-out: MTA IC50
pIC50: −log10 of the molar value.

Example entries begin here.
>>> reported_measurement("C[C@@H]1CC[C@@H](c2cnc3ccccc3c2)N(C(=O)C(=O)Nc2cncc(C(N)=O)c2)C1 (racemic) [Compound 257]")
"6.30 to 7.30"
>>> reported_measurement("Cc1cncc(NC(=O)C(=O)N2C[C@H](C)CC[C@H]2c2cccc(Cl)c2)c1 (racemic) [Compound 13]")
"6.30 to 7.30"
>>> reported_measurement("Cc1cc(NC(=O)C(=O)N2C[C@@H](C)CC[C@@H]2[C@H]2CCC[C@@H](O)C2)cnc1N (single isomer, unassigned) [Compound 566]")
"6.30 to 7.30"
>>> reported_measurement("C[C@H]1CC[C@H]([C@@H]2CCC[C@@H](O)C2)N(C(=O)C(=O)Nc2cncc(C(N)=O)c2)C1 (single isomer, unassigned) [Compound 520]")
"6.30 to 7.30"
>>> reported_measurement("COc1ncc(NC(=O)C(=O)N2C[C@@H](C)CC[C@@H]2c2ccc3sc(C4CN(C)C4)nc3c2)cc1C(N)=O [Compound 1257]")
"> 7.30"

In the following, a different compound is considered.
pIC50 for Cc1cc(NC(=O)C(=O)N2C[C@H](C)CC[C@H]2c2ccc3[nH]c(=O)ccc3c2)cnc1N (single isomer, unassigned) [Compound 763] ?
< 6.30
